Each item that follows carries a reported RBC Hemolysis (HD50).
test system: murine red blood cells; test: Red blood cell hemolysis; type: cell-based, mouse
Non-standard residues stand in square brackets, D forms with d. Residues, ends and D or L forms follow the SMILES beside them.

| Compound | RBC Hemolysis (HD50) |
| --- | --- |
| CC(C)C[C@H]1NC(=O)[C@H](Cc2c[nH]c3ccccc23)NC(=O)[C@@H](CO)NC(=O)[C@H](CCCCN)NC(=O)[C@@H](Cc2ccccc2)NC(=O)[C@H](Cc2c[nH]c3ccccc23)NC(=O)[C@@H](CC(C)C)NC(=O)[C@H](Cc2c[nH]c3ccccc23)NC1=O [SEQ ID NO:42, [KSWLWLWF]] (cyclo(K[dS]W[dL]W[dL]W[dF])) | >26 |
| CC(C)C[C@H]1NC(=O)[C@H](Cc2c[nH]c3ccccc23)NC(=O)[C@@H](Cc2ccccc2)NC(=O)[C@H](CCCCN)NC(=O)[C@@H](Cc2ccccc2)NC(=O)[C@H](CCCCN)NC(=O)[C@@H](CC(C)C)NC(=O)[C@H](Cc2c[nH]c3ccccc23)NC1=O [SEQ ID NO:100, [KFWLWLKF]] (cyclo(K[dF]W[dL]W[dL]K[dF])) | >78 |
| CC[C@@H](C)[C@H]1NC(=O)[C@H](C)NC(=O)[C@@H](Cc2c[nH]c3ccccc23)NC(=O)[C@H](C(C)C)NC(=O)[C@@H](CCCNC(=N)N)NC(=O)[C@H](CCCCN)NC1=O [SEQ ID NO:113, [KRVWAI]] (cyclo(K[dR]V[dW]A[dI])) | >200 |
| CC(C)C[C@H]1NC(=O)CNC(=O)[C@@H](CC(C)C)NC(=O)[C@H](CCCCN)NC(=O)[C@@H](CO)NC(=O)[C@H](CCCCN)NC(=O)[C@@H](CC(C)C)NC(=O)CNC1=O [SEQ ID NO:56, [KSKLGLGL]] (cyclo(K[dS]K[dL]G[dL]G[dL])) | >240 |

----------
tested on: murine red blood cells; experiment: Red blood cell hemolysis; format: cell-based, mouse
Non-standard residues stand in square brackets, D forms with d. Residues, ends and D or L forms follow the SMILES beside them. Nle = CCCC[C@H](N)C(=O)O
As shown below, each of these compounds has a reported RBC Hemolysis (HD50) value.

| Compound | RBC Hemolysis (HD50) |
| --- | --- |
| CC(C)C[C@H]1NC(=O)[C@H](CCCCN)NC(=O)[C@@H](CO)NC(=O)[C@H](CCCCN)NC(=O)[C@@H](CC(C)C)NC(=O)[C@H](Cc2ccc(O)cc2)NC(=O)[C@@H](CC(C)C)NC(=O)[C@H](Cc2ccc(O)cc2)NC1=O [SEQ ID NO:62, [KSKLYLYL]] (cyclo(K[dS]K[dL]Y[dL]Y[dL])) | >200 |
| CCCC[C@@H]1NC(=O)[C@@H](CC(C)C)NC(=O)[C@H](CCCCN)NC(=O)[C@@H](CO)NC(=O)[C@H](CCCCN)NC(=O)[C@@H](CC(C)C)NC(=O)[C@H](CCCC)NC(=O)[C@@H](CC(C)C)NC1=O [SEQ ID NO:59, [KSKLNleLNleL]] (cyclo(K[dS]K[dL][Nle][dL][Nle][dL])) | >220 |
| CC(C)C[C@H]1NC(=O)[C@H](CCCCN)NC(=O)[C@@H](CCCNC(=N)N)NC(=O)[C@H](CCCCN)NC(=O)[C@@H](CC(C)C)NC(=O)[C@H](Cc2ccccc2)NC(=O)[C@@H](CC(C)C)NC(=O)[C@H](Cc2ccccc2)NC1=O [SEQ ID NO:52, [KRKLFLFL]] (cyclo(K[dR]K[dL]F[dL]F[dL])) | >180 |
| NCCCC[C@@H]1NC(=O)[C@@H](Cc2ccccc2)NC(=O)[C@H](CCC(N)=O)NC(=O)[C@@H](Cc2ccccc2)NC(=O)[C@H](CCCCN)NC(=O)[C@@H](CC(N)=O)NC(=O)[C@H](Cc2c[nH]c3ccccc23)NC(=O)[C@@H](CC(N)=O)NC1=O [SEQ ID NO:98, [KFQFKNWN]] (cyclo(K[dF]Q[dF]K[dN]W[dN])) | >280 |
| CC(C)C[C@@H]1NC(=O)[C@@H](Cc2c[nH]c3ccccc23)NC(=O)[C@H](CCC(N)=O)NC(=O)[C@@H](CCCCN)NC(=O)[C@H](CCCCN)NC(=O)[C@@H](Cc2c[nH]c3ccccc23)NC1=O [SEQ ID NO:122, [KKQWLW]] (cyclo(K[dK]Q[dW]L[dW])) | >215 |

----------
system: murine red blood cells; test: Red blood cell hemolysis; assay type: cell-based, mouse
Non-standard residues stand in square brackets, D forms with d. Residues, ends and D or L forms follow the SMILES beside them.

| Compound | RBC Hemolysis (HD50) |
| --- | --- |
| C[C@H](O)[C@H]1NC(=O)[C@H](CCCNC(=N)N)NC(=O)[C@@H](CO)NC(=O)[C@H](CCC(N)=O)NC(=O)[C@@H](Cc2c[nH]cn2)NC(=O)[C@H](CCCCN)NC1=O [SEQ ID NO:130, [KHQSRT]] (cyclo(K[dH]Q[dS]R[dT])) | >200 |
| CC(C)C[C@@H]1NC(=O)[C@@H](Cc2c[nH]c3ccccc23)NC(=O)[C@H](CCC(N)=O)NC(=O)[C@@H](CCC(=O)O)NC(=O)[C@H](CCCCN)NC(=O)[C@@H](Cc2c[nH]c3ccccc23)NC1=O [SEQ ID NO:118, [KEQWLW]] (cyclo(K[dE]Q[dW]L[dW])) | >115 |
| CC(C)C[C@H]1NC(=O)[C@H](Cc2c[nH]c3ccccc23)NC(=O)[C@@H](CCCNC(=N)N)NC(=O)[C@H](CCCCN)NC(=O)[C@@H](CO)NC(=O)[C@H](CCCCN)NC(=O)[C@@H](CC(C)C)NC(=O)[C@H](Cc2c[nH]c3ccccc23)NC1=O [SEQ ID NO:75, [KRWLWLKS]] (cyclo(K[dR]W[dL]W[dL]K[dS])) | >48 |
| CC(C)C[C@H]1NC(=O)[C@H](C)NC(=O)[C@@H](CC(C)C)NC(=O)[C@H](CCCCN)NC(=O)[C@@H](Cc2c[nH]cn2)NC(=O)[C@H](CCCCN)NC(=O)[C@@H](CC(C)C)NC(=O)[C@H](C)NC1=O [SEQ ID NO:45, [KHKLALAL]] (cyclo(K[dH]K[dL]A[dL]A[dL])) | >200 |
